system: OVCAR-5 (Ovarian Carcinoma); test: combination Emax (second highest fraction inhibited in the dose matrix, 72 h); higher = more inhibition; extreme values may be limits of the assay
Outcome measure: combination Emax
Respond numerically, and do not add a unit to the figure.

Look at this compound and give its reported combination Emax. CN(C)CCCOc1ccc(-c2ccc3ncc4c(c3c2)n(C2CCOCC2)c(=O)n4C)cn1 [AZD0156] + C=CCn1c(=O)c2cnc(Nc3ccc(N4CCN(C)CC4)cc3)nc2n1-c1cccc(C(C)(C)O)n1 [AZD1775] (first compound max 1 µM, partner max 1 µM)
0.347

Another compound: Cc1c2c(nn1C)CSCc1cc(n(C)n1)CSc1cc(c3ccccc3c1)OCCCc1c(C(=O)O)n(C)c3c-2c(Cl)ccc13 [AZD5991] + C1CN(CCC1(C(=O)N[C@@H](CCO)C2=CC=C(C=C2)Cl)N)C3=NC=NC4=C3C=CN4 [Capivasertib] (first compound max 1 µM, 7x7, partner max 3 µM)
0.215
